# Test system: HT-29
# testDescription: Cytotoxicity against human HT-29 cells after 24 hrs by MTS assay
# Type: functional, cell-based
experimentalReadout: growth inhibition (GI)

# example entries with known answers
C=CCc1ccc(O)c(-c2ccc(O)c(CC=C)c2)c1 = Dose-dependent effect
C=CCc1cc(-c2cccc(CC=C)c2O)ccc1OC = Dose-dependent effect
C=CCc1cc(Br)c(O)c(-c2ccc(OC)c(CC=C)c2)c1 = Dose-dependent effect
C=CCc1ccc(O)c(-c2ccc(OC)c(CC=C)c2)c1 = Dose-dependent effect
C=CCc1cc(-c2ccc(OC)c(CC=C)c2)ccc1O = Dose-dependent effect

INPUT: Give growth inhibition (GI) for the following molecule: `C=CCc1ccc(O)c(-c2cccc(CC=C)c2O)c1`
OUTPUT: Dose-dependent effect

INPUT: Give growth inhibition (GI) for the following molecule: `C=CCc1cc(-c2ccc(OC)c(CC=C)c2)c(O)c(-c2ccc(OC)c(CC=C)c2)c1`
OUTPUT: Dose-dependent effect
